Reference source for all entries: patent EP4585616A1

Provide the reported EC50 of each item.
target: T1, ROR1 extracellular segment sequence (including transmembrane) on CHO cells (human, UniProt Q01973 30-472); assay: FACS, CHO-ROR1 (extracellular segment) cells
T1 construct: Cloned into pCDNA3.1 and transfected into CHO cells; also called CHO-ROR1 (extracellular segment); CHO-ROR1
T1 sequence (Q01973 30-472 limits assumed): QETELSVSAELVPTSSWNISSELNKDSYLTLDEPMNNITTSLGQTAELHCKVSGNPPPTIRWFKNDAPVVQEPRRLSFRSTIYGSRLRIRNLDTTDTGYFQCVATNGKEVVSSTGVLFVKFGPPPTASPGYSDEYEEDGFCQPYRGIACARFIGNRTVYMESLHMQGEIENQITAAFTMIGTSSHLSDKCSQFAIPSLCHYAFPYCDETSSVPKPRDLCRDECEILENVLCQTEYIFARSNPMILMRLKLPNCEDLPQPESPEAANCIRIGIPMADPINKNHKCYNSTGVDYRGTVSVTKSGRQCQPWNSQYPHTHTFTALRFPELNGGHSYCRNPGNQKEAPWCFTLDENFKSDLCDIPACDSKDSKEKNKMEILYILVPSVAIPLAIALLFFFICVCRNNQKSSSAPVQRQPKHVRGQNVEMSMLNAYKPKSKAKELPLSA
Give bare numbers, in pM.

Past entries and their recorded results:
- BINDER: "mAb005c (antibody, V domains shown, Human-mouse chimeric) VH: EVQLVESGGGLVKPGGSLKLSCAASGFTFNSYAMSWVRQTPEKRLEWVATISDGGSYTYYPDNEKGRFTISRDNAKNNLYLQMSHLKSEDTAIYYCVRGGYYYNLYAMDYWGQGTSVTVSS VL: DIVLTQSPASLAVSLGQRAIISCKASQSVSFPGTSLMHWYQQKPGQQPKLLIYRASNLEAGVPTRFSGSGSRTDFTLNIHPVEEDDTATYYCQQSREYPWTFGGGTQLEIK"
  VALUE: 570
- BINDER: "UC-961 (antibody, V domains shown, Control antibody of US20150232569A1, made with human IgG1 heavy chain constant region and Kappa chain constant region) VH: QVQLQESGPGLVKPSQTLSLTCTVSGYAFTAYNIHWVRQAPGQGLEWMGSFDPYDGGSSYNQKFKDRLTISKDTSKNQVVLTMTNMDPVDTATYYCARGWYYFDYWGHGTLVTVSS VL: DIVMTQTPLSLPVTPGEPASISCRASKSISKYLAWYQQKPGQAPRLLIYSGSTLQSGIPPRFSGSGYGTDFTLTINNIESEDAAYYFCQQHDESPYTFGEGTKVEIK"
  VALUE: 740
- BINDER: "mAb001c (antibody, V domains shown, Human-mouse chimeric; also called human-mouse chimeric antibody mAb001c) VH: EVRLQQSGPVLVKPGASVKMSCKASGYTFTDYNLHWVKQSHRQSLEWIGYINPNHDGTSYNQKFQGKATLTVDRSSSTAYMEFRSLTSEDSAVYYCARRVRTGTGLDDWGQGTTLTVSS VL: DVLMTQSPLSLPVSLGDQASISCRSSHNIVHTNGNTYLEWYLQKPGQSPKLLIYKVSNRFSGVPDRFSGSGSGTYFTLTISRVEAEDLGVYYCFQGSRFPYTFGGGTKLEIK"
  VALUE: 320

# ---- query binder ----
Given the binder mAb004c (antibody, V domains shown, Human-mouse chimeric) VH: EVQLVESGGGLVQPKGSLKLSCAASGFTFNTYAMHWVRQAPGKGLEWVARIRSKSSNFATYYADSVRDRFTISRDDSQSMLYLQMNNLKTEDTAMYYCVRGYGPSYFSLDYWGQGTSVTVSS VL: DVVMTQTPLSLPVSLGDQASISCRSSQSLVHSNGNTYLHWYLQKPGQSPKLLIYKVSNRFSGVPDRFSGSGSGTDFTLKINRVEAEDLGVYFCSQSTHAIYTFGGGTKLEIK , what is its reported EC50?
320
